All figures here come from the RNAGym collection of RNA variant scans (doi:10.1101/gr.219683.116).

B1: mRNA-splicing (parent)
chain: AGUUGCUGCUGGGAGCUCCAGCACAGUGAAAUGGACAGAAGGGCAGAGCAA

Variants of: B1
TEST SUMMARY: exon inclusion enrichment index; higher = more inclusion; WT1 exon 5 minigene, HEK293
MEASUREMENT TYPE: exon inclusion enrichment index

A selection of reference data follows.
- MUTATION NOTATION: "G5A C6G U7G C9A A23C C24U"
  exon inclusion enrichment index: 0.00192
- MUTATION NOTATION: "G5C C6A U7C G8A U10A C24A A25C"
  exon inclusion enrichment index: 0.742
- MUTATION NOTATION: "G5U G8U C9U A25C G26U"
  exon inclusion enrichment index: 0.328
- MUTATION NOTATION: "G5U G8U C9U A25G G26C"
  exon inclusion enrichment index: 0.74
- MUTATION NOTATION: "C6A U7A C9A U10A U17C"
  exon inclusion enrichment index: 0.424
- MUTATION NOTATION: "G5C C6A U7C G8A U10A C16G U17C"
  exon inclusion enrichment index: 0.0308
- MUTATION NOTATION: "C6A U7A C9A U10A A45G"
  exon inclusion enrichment index: 1.6
- MUTATION NOTATION: "U4G C6U G8C C9U U10C"
  exon inclusion enrichment index: 0.778
- MUTATION NOTATION: "U17A C18G"
  exon inclusion enrichment index: 0.00663
- MUTATION NOTATION: "G5A U7C G8A U10C G43A C44U"
  exon inclusion enrichment index: 2.57

Suppose we examine the variant C6A U7A C9A U10A G15C ; what exon inclusion enrichment index value has been reported?
1.25

Now give it for G26C U27A too.
0.11

How about this variant: G5C C6U G8C C9U U10C G38A A39U
0.134

Try the variant G5A C6U U7A G8U C9A G12U G13C
0.00721

Moving on to the next variant: G5C U7G C9A
1.66

Would you mind doing G5C C6A U7C G8A U10A G34U A35U as well?
0.00489

And what about the variant G5A U7C G8A U10C C44A A45C ?
3.95
